Target: T1, Rb^P S751Y (human, UniProt P06400 380-788, S751Y)
T1 construct: also called variant 72
T1 sequence (looked up): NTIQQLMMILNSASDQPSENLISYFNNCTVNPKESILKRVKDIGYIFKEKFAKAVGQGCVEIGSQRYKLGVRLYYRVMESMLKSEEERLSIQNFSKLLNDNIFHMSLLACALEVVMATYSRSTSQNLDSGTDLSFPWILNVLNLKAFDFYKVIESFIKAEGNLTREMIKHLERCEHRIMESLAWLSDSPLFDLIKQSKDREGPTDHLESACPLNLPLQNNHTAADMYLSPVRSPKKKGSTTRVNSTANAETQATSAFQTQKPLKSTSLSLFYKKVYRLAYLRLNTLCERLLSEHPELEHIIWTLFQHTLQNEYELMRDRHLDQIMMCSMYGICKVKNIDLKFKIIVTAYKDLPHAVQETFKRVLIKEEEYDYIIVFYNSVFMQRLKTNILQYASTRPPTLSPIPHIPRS
Test: fluorescence polarisation; 25 °C; unlabeled Rb^P titrated against 1.5 nM TMR-E2F1^TD or 7.5 nM TMR-E7^LxCxE; 25 mM Tris pH 8.0, 200 mM NaCl, 1 mM DTT, 0.1% Tween-20; 2 min incubation; quadratic fit; apparent Kd for the variants, Kd for WT
Details: both partners purified
No end group written: not given here. TMR = tetramethyl rhodamine dye
ASSAY METRIC: Kd
Reply with a number, then the unit it belongs to.

{TMR}-GEGIRDLFDCDFGDLTPLD (also called E2F^TD; source: synthetic peptide, bought: GenScript) [TMR-E2F1^TD, peptide of the E2F1 transactivation domain]; 33 nM

Kindly consider the entry below.
I am curious: what Kd value has been reported for DLYCYEQLN (also: TMR label, position not given here, source: synthetic peptide, bought: GenScript) [TMR-E7^LxCxE, LxCxE peptide of the E7 oncoprotein from HPV] ?
127 nM

The measured values listed here are drawn from paper PMC11931385.
